B1: LINE1-full (parent)
chain: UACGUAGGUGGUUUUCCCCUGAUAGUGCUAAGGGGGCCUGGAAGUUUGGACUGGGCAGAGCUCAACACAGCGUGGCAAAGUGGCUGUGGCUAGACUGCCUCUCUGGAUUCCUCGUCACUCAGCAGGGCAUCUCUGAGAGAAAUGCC

# Variants of: B1
# EXPERIMENT NOTES: self-cleavage, relative activity (ratio to wild type); higher = more cleavage; in vitro, sequencing; the parent is a self-cleaving ribozyme
# binarize self-cleavage: threshold 1 inclusive, high side yes (1), low side no (0)

Some entries whose results are on file:
UACGUAGGUGGUUUUCCCCUGAUAGAGCUAAGGGGGCCUGGAAGUUUGGACUGGGCAGAGCUCAACACAGCGUGGCAAAGUUGCUGUGGCUAGACUGCCUCUCUGGAUUCCUCGUCACUCAGCAGGGCAUCUCUGAGAGAAAUGCC [U26A G82U]; no (0)
UACGUAGGUGGUUUUCCCCUGAUAGUGCUAAGGGGGCCUGGAAGUUUGGACCGGGCAGAGCUCAACACAGCGUGGCAAAGUGGCUGUGGCUAGACUGCCUCUCUGGAUUCCUCGCCACUCAGCAGGGCAUCUCUGAGAGAAAUGCC [U52C U115C]; yes (1)
UACGUAGGUGGUUUACCCCUGAUAGUGCUAAGGGGGCCUGGAAGUUUGGACUGGGCAGAGCUCUACACAGCGUGGCAAAGUGGCUGUGGCUAGACUGCCUCUCUGGAUUCCUCGUCACUCAGCAGGGCAUCUCUGAGAGAAAUGCC [U15A A64U]; no (0)
UACGUAGGAGGUUUUCCCCUGAUAGUGCUAAGGGGGCCUGGAAGUUUGGACUGGGCAGAGCUCAACACAGCGUGGCAAAGUGGCUGUGGCUAGACUGCCUCUCUGGAUUCCUCGUCACUCUGCAGGGCAUCUCUGAGAGAAAUGCC [U9A A121U]; yes (1)
UACGUAGGUGGUUUUCCCCUGAUAGUGCUAAGGGGGCCUGGAAGUUUGGACUGGGCAGAGCUCAACACAGCGUGGCAUAGUGGCUGUGGCGAGACUGCCUCUCUGGAUUCCUCGUCACUCAGCAGGGCAUCUCUGAGAGAAAUGCC [A78U U91G]; no (0)

Enquiry: # check: self-cleavage of UACGUAGGUGGUUUUCCCCUGAUAGUGCUAAGGGGACCUGGAAGUUUGGACUGGGCAGAGCUCAACACAGCGUGGCAAAGUGGCUGUGGCUAGACUGCCUCUCUGGAUUCCUCGUCACUCAGCAGGGCAUCUCUGAGAGAAGUGCC [G36A A142G] is greater than or equal to 1
Return: yes (1)

Enquiry: Please answer likewise for UACGUAGGUGGUUUUCCCCUGAUAGUGCUAAGGGGGCCUGGAAGUUUGGACUGGGCAGAGCUCUACACAGCGUGGCAAAGUGGCUGUGGCUAGACUGCCUCUCUGGAUUCCCCGUCACUCAGCAGGGCAUCUCUGAGAGAAAUGCC [A64U U112C]
Return: no (0)

Enquiry: Please answer likewise for UACGUAGGUGGUCUUCCCCUGAUAGUGCUAAGGGGGCCUGGAAGUUUGGACUGGGCAGAGCUCAACACAGCGUGGCAAGGUGGCUGUGGCUAGACUGCCUCUCUGGAUUCCUCGUCACUCAGCAGGGCAUCUCUGAGAGAAAUGCC [U13C A79G]
Return: yes (1)

Enquiry: Please answer likewise for UACGUAGGUGGUCUUCCCCUGAUAGUGCUAAGGGGGCUUGGAAGUUUGGACUGGGCAGAGCUCAACACAGCGUGGCAAAGUGGCUGUGGCUAGACUGCCUCUCUGGAUUCCUCGUCACUCAGCAGGGCAUCUCUGAGAGAAAUGCC [U13C C38U]
Return: yes (1)
